Values compiled from ChEMBL document CHEMBL1142880.

Test: Cytotoxicity against MT4 cells after 4 days by MTT method
Format: cell-based
Conditions: human
assay readout: CC50 at 96 h (µM)
Use µM as the unit, but write only the number.

For the molecule shown here, "CCc1c(C(=O)c2cccc3ccccc23)n(COCC=C(C)C)c(=O)[nH]c1=O" , give the reported CC50 at 96 h. 36.4

For the molecule shown here, "Cc1c(C(=O)c2cccc3ccccc23)n(COCc2ccccc2)c(=O)[nH]c1=O" , give the reported CC50 at 96 h. 45.6

For the molecule shown here, "CC(=O)OC/C=C(\C)Cn1c(C(=O)c2cccc3ccccc23)c(C)c(=O)[nH]c1=O" , give the reported CC50 at 96 h. 200

For the molecule shown here, "Cc1c(C(=O)c2cccc3ccccc23)n(COCC2CC2)c(=O)[nH]c1=O" , give the reported CC50 at 96 h. 77.6

For the molecule shown here, "CC(C)=CCn1c(C(=O)c2cccc3ccccc23)c(C)c(=O)[nH]c1=O" , give the reported CC50 at 96 h. 44.6

For the molecule shown here, "CCc1c(C(=O)c2cccc3ccccc23)n(C/C=C/C(=O)OC)c(=O)[nH]c1=O" , give the reported CC50 at 96 h. 38.6

For the molecule shown here, "CCOCn1c(C(=O)c2cccc3ccccc23)c(CC)c(=O)[nH]c1=O" , give the reported CC50 at 96 h. 23

For the molecule shown here, "CC(C)c1c(C(=O)c2cccc3ccccc23)n(COCc2ccccc2)c(=O)[nH]c1=O" , give the reported CC50 at 96 h. 26.9

For the molecule shown here, "Cc1c(Sc2ccccc2)n(COCCO)c(=O)[nH]c1=O" , give the reported CC50 at 96 h. 405

For the molecule shown here, "CC(C)=CCn1c(C(=O)c2cccc3ccccc23)c(C(C)C)c(=O)[nH]c1=O" , give the reported CC50 at 96 h. 30.8
